Target: GST-Aq-NF-kB (Amphimedon queenslandica, UniProt A9Y5G7 2-389)
Sequence: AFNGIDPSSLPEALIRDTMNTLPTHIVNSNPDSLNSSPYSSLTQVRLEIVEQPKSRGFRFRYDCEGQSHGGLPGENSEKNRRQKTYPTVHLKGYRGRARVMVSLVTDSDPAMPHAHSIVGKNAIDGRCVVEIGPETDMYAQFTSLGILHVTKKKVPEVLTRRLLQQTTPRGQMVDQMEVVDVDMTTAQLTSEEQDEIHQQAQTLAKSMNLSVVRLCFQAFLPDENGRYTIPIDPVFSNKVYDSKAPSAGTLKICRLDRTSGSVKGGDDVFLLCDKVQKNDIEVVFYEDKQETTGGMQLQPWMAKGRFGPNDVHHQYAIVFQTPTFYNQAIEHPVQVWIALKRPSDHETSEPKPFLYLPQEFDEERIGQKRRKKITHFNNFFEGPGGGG
Assay: protein-binding microarray (PBM); PBM: ~300 nM protein, 6 mM HEPES pH 7.8, 80 mM KCl, 0.5 mM EDTA, 0.5 mM EGTA, 6% glycerol, 35 ng/ul poly-dIdC, 1% milk, 1 h, room temperature; high values mean tight binding
Conditions: dsDNA, one strand shown
The class of a record is decided solely by its measured binding signal; consult lower bin (below 3 z-score), middle bin (3 z-score to below 5 z-score), upper bin (5 z-score or more)

- polymer sequence: "CCGATTAACATCAGGGAAACCACTGATGTTAATCGGGTCTTGATTCGCTTGACGCTGCTG"
  label: "upper bin"
- polymer sequence: "CCGATTAACATCAGGGCAGTCCATGATGTTAATCGGGTCTTGATTCGCTTGACGCTGCTG"
  label: "lower bin"
- polymer sequence: "CCGATTAACATCAGGGGAAAAAATGATGTTAATCGGGTCTTGATTCGCTTGACGCTGCTG"
  label: "upper bin"
- polymer sequence: "CCGATTAACATCAGGGAAAAAAATGATGTTAATCGGGTCTTGATTCGCTTGACGCTGCTG"
  label: "middle bin"
- polymer sequence: "CCGATTAACATCAGGAAAAGTACTGATGTTAATCGGGTCTTGATTCGCTTGACGCTGCTG"
  label: "lower bin"
- polymer sequence: "CCGATTAACATCAGGGAGTTTTATGATGTTAATCGGGTCTTGATTCGCTTGACGCTGCTG"
  label: "upper bin"
- polymer sequence: "CCGATTAACATCAGGCAACTCCCTGATGTTAATCGGGTCTTGATTCGCTTGACGCTGCTG"
  label: "middle bin"
- polymer sequence: "CCGATTAACATCAAGGTTCCCCCTGATGTTAATCGGGTCTTGATTCGCTTGACGCTGCTG"
  label: "upper bin"
- polymer sequence: "CCGATTAACATCAAAACATCCCCTGATGTTAATCGGGTCTTGATTCGCTTGACGCTGCTG"
  label: "upper bin"
- polymer sequence: "CCGATTAACATCAGGGAACTACATGATGTTAATCGGGTCTTGATTCGCTTGACGCTGCTG"
  label: "lower bin"
- polymer sequence: "CCGATTAACATCAAAAAATACCATGATGTTAATCGGGTCTTGATTCGCTTGACGCTGCTG"
  label: "lower bin"
- polymer sequence: "CCGATTAACATCATCCGCGGGAGTGATGTTAATCGGGTCTTGATTCGCTTGACGCTGCTG"
  label: "lower bin"
- polymer sequence: "CCGATTAACATCACCCCTCCCCGTGATGTTAATCGGGTCTTGATTCGCTTGACGCTGCTG"
  label: "middle bin"
- polymer sequence: "CCGATTAACATCAGCTAATTCCCTGATGTTAATCGGGTCTTGATTCGCTTGACGCTGCTG"
  label: "middle bin"
- polymer sequence: "CCGATTAACATCAAAAATTCACCTGATGTTAATCGGGTCTTGATTCGCTTGACGCTGCTG"
  label: "lower bin"
- polymer sequence: "CCGATTAACATCAGGATTTTCCATGATGTTAATCGGGTCTTGATTCGCTTGACGCTGCTG"
  label: "lower bin"

====

Biological target: GST-Dm-Relish (Drosophila melanogaster, UniProt Q94527 99-473)
Sequence: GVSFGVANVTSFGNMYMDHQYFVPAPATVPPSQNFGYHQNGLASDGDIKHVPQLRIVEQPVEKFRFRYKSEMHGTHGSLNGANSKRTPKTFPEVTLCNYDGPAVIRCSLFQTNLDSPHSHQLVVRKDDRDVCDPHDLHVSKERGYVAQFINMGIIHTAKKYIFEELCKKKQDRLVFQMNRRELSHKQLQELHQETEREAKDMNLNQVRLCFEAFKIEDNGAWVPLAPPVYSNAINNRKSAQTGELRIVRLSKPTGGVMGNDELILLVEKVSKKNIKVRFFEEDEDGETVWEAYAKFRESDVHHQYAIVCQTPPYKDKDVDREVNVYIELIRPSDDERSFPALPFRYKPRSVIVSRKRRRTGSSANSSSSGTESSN
Test: protein-binding microarray (PBM); PBM: ~300 nM protein, 6 mM HEPES pH 7.8, 80 mM KCl, 0.5 mM EDTA, 0.5 mM EGTA, 6% glycerol, 35 ng/ul poly-dIdC, 1% milk, 1 h, room temperature; high values mean tight binding
Settings: dsDNA, one strand shown
Field: label. Allowed values: YES (binding signal < 4 z-score) or NO (binding signal >= 4 z-score).

- polymer sequence: "CCGATTAACATCACCCTCGAGGGTGATGTTAATCGGGTCTTGATTCGCTTGACGCTGCTG"
  label: "YES"
- polymer sequence: "CCGATTAACATCAGGGGCGTTTATGATGTTAATCGGGTCTTGATTCGCTTGACGCTGCTG"
  label: "YES"
- polymer sequence: "CCGATTAACATCACGGAATTTTATGATGTTAATCGGGTCTTGATTCGCTTGACGCTGCTG"
  label: "YES"
- polymer sequence: "CCGATTAACATCAAAGATCCCCCTGATGTTAATCGGGTCTTGATTCGCTTGACGCTGCTG"
  label: "NO"
- polymer sequence: "CCGATTAACATCACCCAACCCCCTGATGTTAATCGGGTCTTGATTCGCTTGACGCTGCTG"
  label: "NO"
- polymer sequence: "CCGATTAACATCAGGGGGAAAAATGATGTTAATCGGGTCTTGATTCGCTTGACGCTGCTG"
  label: "NO"
- polymer sequence: "CCGATTAACATCAGGAAAGTACATGATGTTAATCGGGTCTTGATTCGCTTGACGCTGCTG"
  label: "NO"

====

Molecular target: GST-Ap-NF-kB RHD (Exaiptasia pallida (Aiptasia), UniProt A0A913YAJ5 2-422)
Sequence: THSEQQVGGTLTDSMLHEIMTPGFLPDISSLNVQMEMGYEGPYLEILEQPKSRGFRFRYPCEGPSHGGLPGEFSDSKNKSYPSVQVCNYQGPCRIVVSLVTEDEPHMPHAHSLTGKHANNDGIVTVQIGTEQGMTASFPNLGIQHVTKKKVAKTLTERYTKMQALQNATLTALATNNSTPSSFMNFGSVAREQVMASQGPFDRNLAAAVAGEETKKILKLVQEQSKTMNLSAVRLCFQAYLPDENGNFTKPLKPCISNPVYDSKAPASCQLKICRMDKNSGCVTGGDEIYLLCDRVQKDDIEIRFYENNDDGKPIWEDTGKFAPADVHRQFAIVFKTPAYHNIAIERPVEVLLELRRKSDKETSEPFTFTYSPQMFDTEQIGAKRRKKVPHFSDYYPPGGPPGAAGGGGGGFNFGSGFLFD
Assay: protein-binding microarray (PBM); PBM: ~300 nM protein, 6 mM HEPES pH 7.8, 80 mM KCl, 0.5 mM EDTA, 0.5 mM EGTA, 6% glycerol, 35 ng/ul poly-dIdC, 1% milk, 1 h, room temperature; Ap Aiptasia and Nv Nematostella (sea anemones) / Co Capsaspora / Aq Amphimedon (sponge) / Dm Drosophila / Hu human; RHD is the Rel homology domain; high values mean tight binding
Conditions: dsDNA, one strand shown
Below, each entry is listed alongside its reported binding signal.
readout: binding signal (z-score)

- polymer sequence: "CCGATTAACATCAGAAATGTCCCTGATGTTAATCGGGTCTTGATTCGCTTGACGCTGCTG"
  readout: "binding signal"
  reported result: 2.83
- polymer sequence: "CCGATTAACATCAACAATCCCCCTGATGTTAATCGGGTCTTGATTCGCTTGACGCTGCTG"
  readout: "binding signal"
  reported result: 7.89
- polymer sequence: "CCGATTAACATCAATATACCCCCTGATGTTAATCGGGTCTTGATTCGCTTGACGCTGCTG"
  readout: "binding signal"
  reported result: 6.61
- polymer sequence: "CCGATTAACATCAGGGAAAGATATGATGTTAATCGGGTCTTGATTCGCTTGACGCTGCTG"
  readout: "binding signal"
  reported result: 2.67
- polymer sequence: "CCGATTAACATCAGGGACTTCTATGATGTTAATCGGGTCTTGATTCGCTTGACGCTGCTG"
  readout: "binding signal"
  reported result: 5.47
- polymer sequence: "CCGATTAACATCACCCCTCCCCCTGATGTTAATCGGGTCTTGATTCGCTTGACGCTGCTG"
  readout: "binding signal"
  reported result: 4.84
- polymer sequence: "CCGATTAACATCAATATTCCCCATGATGTTAATCGGGTCTTGATTCGCTTGACGCTGCTG"
  readout: "binding signal"
  reported result: 7.4
- polymer sequence: "CCGATTAACATCAAAAAATACCATGATGTTAATCGGGTCTTGATTCGCTTGACGCTGCTG"
  readout: "binding signal"
  reported result: 1.11
- polymer sequence: "CCGATTAACATCATCCGCGGGAGTGATGTTAATCGGGTCTTGATTCGCTTGACGCTGCTG"
  readout: "binding signal"
  reported result: 1.05
